Biological target: T1, ANAC046 intrinsically disordered region, ANAC046(172-338) (Arabidopsis thaliana, UniProt Q9SQQ6 172-338)
T1 sequence (looked up): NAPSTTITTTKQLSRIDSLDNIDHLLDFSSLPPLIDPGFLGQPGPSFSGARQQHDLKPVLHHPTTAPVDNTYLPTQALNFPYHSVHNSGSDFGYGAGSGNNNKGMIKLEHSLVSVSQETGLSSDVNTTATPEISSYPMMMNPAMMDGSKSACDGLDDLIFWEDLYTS
Assay: ITC
assay-metric: pKd
Note on pKd: it is the negative log10 of concentration, concentration in mol/L.

Q: Find the recorded pKd belonging to RST domain of Radical-Induced Cell Death1 (RCD1), RCD1-RST(499-572) (domain or fragment, Arabidopsis, UniProt Q8RY59 499-572, looked up) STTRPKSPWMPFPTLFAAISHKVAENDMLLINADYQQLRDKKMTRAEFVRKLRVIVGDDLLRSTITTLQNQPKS and report it.
Result: 6.70
